target or test system: T1, recombinant NT-proBMP10 (22-312) (human, UniProt O95393 22-312)
T1 construct: In-house construct; also called pro-peptide BMP10; BMP10(312)
T1 sequence: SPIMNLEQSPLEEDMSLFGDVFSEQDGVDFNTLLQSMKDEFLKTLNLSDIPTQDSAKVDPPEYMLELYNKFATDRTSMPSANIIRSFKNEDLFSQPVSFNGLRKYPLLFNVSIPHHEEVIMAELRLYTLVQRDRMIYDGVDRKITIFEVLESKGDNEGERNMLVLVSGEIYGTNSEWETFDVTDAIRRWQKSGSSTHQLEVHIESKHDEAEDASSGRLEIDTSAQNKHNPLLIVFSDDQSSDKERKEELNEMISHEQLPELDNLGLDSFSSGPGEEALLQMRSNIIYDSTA
test method notes: SPR Biacore 8K, 37°C, bound analyte per mAb
Task for the reader: assign each of the following binders its reported MR (Molar Ratio).
Respond with the number and no other words.

Query string: What MR (Molar Ratio) value was documented for this binder, MAB<BMP10>rRb-8G5 HC3/LC5 (p10qz/p10ra)-IgG(SPA) (antibody, V domains shown, Recombinant rabbit monoclonal IgG; also called clone 8G5; VH-8/VL-8) VH: QSLEESGGDLVKPGASLTLTCTASGFSFSSSYWICWVRQAPGKGLEWIACIYAGSSDITYYASWAKGRFTVSKTSSPTVTLQMTSLTAADTATYFCARGRYYVDGYADYYPGDFNLWGPGTLVTVSS VL: DIVMTQTPASVEAAVGGTVTIKCQASQSISSYLAWYQQKSGQPPKLLIYLASTLESGVPSRFKGSGSGTEFTLTISDLECADAATYYCQSYYYSSSSSYGSAFGGGTEVVVK ?
Result string: 1.2

Query string: What MR (Molar Ratio) value was documented for this binder, MAB<BMP10>rRb-9E7 HC12/LC7 (p10rw/p10rx)-IgG(SPA) (antibody, V domains shown, Recombinant rabbit monoclonal IgG; also called clone 9E7) VH: QSLEESGGGLVQPEGSLTLTCIASAFSFSSGYYMCWVRQAPGKGLEWIACIYAGSSGTTYYASWAKGRFTISKASSTTVTLLMTSLTAADTATYFCARGPGASGYRLGLWGPGTLVTVSS VL: DVVMTQTPASVSEPVGGTVTIKCQASEDIYRLLAWYQQKPGQPPKLLIYDASDLASGVPSRLSGSGSGTEYTLSISDLECADAATYYCQQGYYISGGDSFGGGTEVVVK ?
Result string: 1.4
